- Read-out: Lipoprotein lipase (LPL), LPL (gene 4023)
- Assay Protocol: LTEA_HepaRG_LPL: Life Technologies and Expression Analysis (LTEA) Assay for Lipoprotein lipase (LPL) using HepaRG (AID 2283515)
- Condition Summary: mRNA level, 48 h; actives raise or lower the signal
Activity calls are given as the source filed them. Rule for the calls: active = hit-call score of the fitted dose curve at least 0.9, where 1 is the maximum; inactive = score below 0.9.
Possible outcomes: active, inactive

Molecule	Classification
CCOC(=O)CC(SP(=O)(OC)OC)C(=O)OCC (centres undefined)	inactive
C#CCC1=C(C)C(OC(=O)C2C(C=C(C)C)C2(C)C)CC1=O (centres undefined)	inactive
CCCOCC(=Nc1ccc(Cl)cc1C(F)(F)F)n1ccnc1	active
CCCSP(=O)(OCC)SCCC	inactive
CCC(=O)Nc1ccc(Cl)c(Cl)c1	inactive
CC(C)=CC1C(C(=O)OCN2C(=O)C3=C(CCCC3)C2=O)C1(C)C (centres undefined)	inactive
O=c1ccc(=O)[nH][nH]1	inactive
COc1ccc(C(=CC(=O)N2CCOCC2)c2ccc(Cl)cc2)cc1OC	inactive
Cc1nn(-c2cc(NS(C)(=O)=O)c(Cl)cc2Cl)c(=O)n1C(F)F	inactive
Nc1nc(N)nc(NC2CC2)n1	inactive
CCOP(=O)(SC(C)CC)N1CCSC1=O (centres undefined)	inactive
Cc1cc(C2CC2)nc(Nc2ccccc2)n1	inactive
COP(=O)(OC)C(O)C(Cl)(Cl)Cl (centres undefined)	inactive
CCCCN(CC)c1c([N+](=O)[O-])cc(C(F)(F)F)cc1[N+](=O)[O-]	inactive
C=C(C)[C@H]1Cc2c(ccc3c2O[C@@H]2COc4cc(OC)c(OC)cc4[C@@H]2C3=O)O1	active
CCCOc1nn(C(=O)NS(=O)(=O)c2ccccc2C(=O)OC)c(=O)n1C	inactive
CN1COCN(Cc2cnc(Cl)s2)C1=N[N+](=O)[O-]	inactive
COP(=O)(OC)SCn1c(=O)oc2cc(Cl)cnc21	inactive
CCOP(=O)(OCC)Oc1cc(C)nc(C(C)C)n1	inactive
